Record form. Attribute: kHSA. Fill in for each entry.

// fetch human serum albumin (HSA) (Homo sapiens) kHSA for NCC1(CC(=O)O)CCCCC1 [gabapentin]
0.15

// fetch human serum albumin (HSA) (Homo sapiens) kHSA for CNCC[C@H](Oc1cccc2ccccc12)c1cccs1 [duloxetine]
8.16

// fetch human serum albumin (HSA) (Homo sapiens) kHSA for CC(=O)Nc1nnc(S(N)(=O)=O)s1 [acetazolamid]
0.74

// fetch human serum albumin (HSA) (Homo sapiens) kHSA for CC(C)C[C@H](CN)CC(=O)O [pregabalin]
0.14

###

- Test Name: HPLC on immobilized artificial membrane column (HPLCIAM)
- Format: physicochemical
- Experimental Context: Table S5, IAM column, pH 7.4
Measured Parameter: log k IAM
Lab note: record just the number, no unit beside it.

So what does the record say about log k IAM for Cc1ncc2n1-c1ccc(Cl)cc1C(c1ccccc1F)=NC2 ?
0.76

So what does the record say about log k IAM for C[C@H]1COc2c(N3CCN(C)CC3)c(F)cc3c(=O)c(C(=O)O)cn1c23 ?
-0.04

So what does the record say about log k IAM for CC1(C)S[C@@H]2[C@H](NC(=O)[C@H](N)c3ccc(O)cc3)C(=O)N2[C@H]1C(=O)O ?
-1.32

So what does the record say about log k IAM for O=C1Nc2ccc(Cl)cc2C(c2ccccc2)=NC1O (stereo not drawn) ?
0.68

So what does the record say about log k IAM for O=C1Nc2ccc(Cl)cc2C(c2ccccc2Cl)=NC1O (stereo not drawn) ?
0.96

So what does the record say about log k IAM for CCOc1ccc(/C=C2\NCCc3cc(OCC)c(OCC)cc32)cc1OCC ?
1.49

So what does the record say about log k IAM for O=C(O)C1N=C(c2ccccc2)c2cc(Cl)ccc2NC1=O (stereo not drawn) [clorazepate] ?
0.69

So what does the record say about log k IAM for NS(=O)(=O)c1cc(C2(O)NC(=O)c3ccccc32)ccc1Cl (stereo not drawn) ?
0.12

So what does the record say about log k IAM for C[C@](N)(Cc1ccc(O)c(O)c1)C(=O)O ?
-1.02

###

- Test Name: HPLC on immobilized artificial membrane column (HPLCIAM)
- Type: physicochemical
- Experimental Context: Table S9, external group
Recorded kIAM determines the group label, using category 1: < 2; category 2: ≥ 2 and < 3; category 3: ≥ 3

Sort into band: CC[C@@H](C(N)=O)N1CCCC1=O [levetiracetam]
category 1

Sort into band: CNCC[C@H](Oc1cccc2ccccc12)c1cccs1 [duloxetine]
category 2

Sort into band: CN1CCC[C@@H]1Cc1c[nH]c2ccc(CCS(=O)(=O)c3ccccc3)cc12 [eletriptan]
category 3

Sort into band: CC(N)C12CC3CC(CC(C3)C1)C2 (centres unmarked) [rimantadine]
category 1

Sort into band: CC(C)(C)NC[C@H](O)COc1nsnc1N1CCOCC1 [timolol]
category 2

Sort into band: Nc1ccc(O)c(C(=O)O)c1 [mesalazine]
category 1

Sort into band: NCC1(CC(=O)O)CCCCC1 [gabapentin]
category 1

Sort into band: CCC(C)n1ncn(-c2ccc(N3CCN(c4ccc(OCC5COC(Cn6cncn6)(c6ccc(Cl)cc6Cl)O5)cc4)CC3)cc2)c1=O (centres unmarked) [itraconazole]
category 3

Sort into band: CO[C@H]1/C=C/O[C@@]2(C)Oc3c(C)c(O)c4c(O)c(c(/C=N/N5CCN(C)CC5)c(O)c4c3C2=O)NC(=O)/C(C)=C\C=C\[C@H](C)[C@H](O)[C@@H](C)[C@@H](O)[C@@H](C)[C@H](OC(C)=O)[C@@H]1C [rifampicin]
category 3

Sort into band: CCC[C@@H]1C[C@@H](C(=O)N[C@@H]([C@H]2O[C@H](SC)[C@H](O)[C@@H](O)[C@H]2O)[C@@H](C)O)N(C)C1 [lincomycin]
category 3

Sort into band: CC(=O)CC(c1ccccc1)c1c(O)c2ccccc2oc1=O (centres unmarked) [warfarin]
category 2

Sort into band: CCCc1cc(=O)[nH]c(=S)[nH]1 [propylthiouracil]
category 1

Sort into band: CC(C)C[C@H](CN)CC(=O)O [pregabalin]
category 1

Sort into band: NC(=O)N1c2ccccc2CC(=O)c2ccccc21 [oxcarbamazepine]
category 2

Sort into band: CC[C@@H](CO)NCCN[C@@H](CC)CO [ethambutol]
category 2

Sort into band: CN(C)CCCC1(c2ccc(F)cc2)OCc2cc(C#N)ccc21 (centres unmarked) [citalopram]
category 3

Sort into band: O=C(c1ccccc1)c1ccc2n1CCC2C(=O)O (centres unmarked) [ketorolac]
category 2

Sort into band: CN(C)CCC=C1c2ccccc2COc2ccccc21 [doxepin]
category 2

###

Record form. Attribute: CRP (Rf, control RP plate). Fill in for each entry.
- Test Name: RP TLC on non-impregnated control plates
- Assay type: physicochemical
- Experimental Context: Table S4, non-impregnated RP plate; acetonitrile/acetate buffer pH 7.4/methanol 60:20:20
Lab note: record just the number, no unit beside it.

So what does the record say about CRP (Rf, control RP plate) for CN1CCN=C(c2ccccc2)c2cc(Cl)ccc21 ?
0.66

So what does the record say about CRP (Rf, control RP plate) for CN1C[C@H](C(=O)N[C@]2(C)O[C@@]3(O)[C@@H]4CCCN4C(=O)[C@H](Cc4ccccc4)N3C2=O)C[C@@H]2c3cccc4[nH]cc(c34)C[C@H]21 [dihydroergotamine] ?
0.78

So what does the record say about CRP (Rf, control RP plate) for CC(C)C[C@H]1C(=O)N2CCC[C@H]2[C@]2(O)O[C@](NC(=O)[C@@H]3C=C4c5cccc6[nH]c(Br)c(c56)C[C@H]4N(C)C3)(C(C)C)C(=O)N12 ?
0.69

So what does the record say about CRP (Rf, control RP plate) for O=C(CCCN1CCC(O)(c2ccc(Cl)cc2)CC1)c1ccc(F)cc1 ?
0.61

So what does the record say about CRP (Rf, control RP plate) for Nc1nc2c(ncn2COCCO)c(=O)[nH]1 ?
0.99

So what does the record say about CRP (Rf, control RP plate) for CCCc1nn(C)c2c(=O)[nH]c(-c3cc(S(=O)(=O)N4CCN(C)CC4)ccc3OCC)nc12 ?
0.77

So what does the record say about CRP (Rf, control RP plate) for O=C(O)c1cn(C2CC2)c2cc(N3CCNCC3)c(F)cc2c1=O ?
0.38

So what does the record say about CRP (Rf, control RP plate) for CNCCC(Oc1ccc(C(F)(F)F)cc1)c1ccccc1 (stereo not shown) ?
0.54

So what does the record say about CRP (Rf, control RP plate) for CC[C@H]1OC(=O)[C@H](C)[C@@H](O[C@H]2C[C@@](C)(OC)[C@@H](O)[C@H](C)O2)[C@H](C)[C@@H](O[C@@H]2O[C@H](C)C[C@H](N(C)C)[C@H]2O)[C@](C)(O)C[C@@H](C)/C(=N\OCOCCOC)[C@H](C)[C@@H](O)[C@]1(C)O ?
0.80

So what does the record say about CRP (Rf, control RP plate) for CC[C@H]1OC(=O)[C@H](C)[C@@H](O[C@H]2C[C@@](C)(OC)[C@@H](O)[C@H](C)O2)[C@H](C)[C@@H](O[C@@H]2O[C@H](C)C[C@H](N(C)C)[C@H]2O)[C@](C)(OC)C[C@@H](C)C(=O)[C@H](C)[C@@H](O)[C@]1(C)O ?
0.83

So what does the record say about CRP (Rf, control RP plate) for COc1ccc2cc([C@H](C)C(=O)O)ccc2c1 ?
0.88

So what does the record say about CRP (Rf, control RP plate) for CCOC(=O)[C@H](CCc1ccccc1)N[C@@H](C)C(=O)N1Cc2ccccc2C[C@H]1C(=O)O ?
0.57

So what does the record say about CRP (Rf, control RP plate) for CC(=O)[C@H]1CC[C@H]2[C@@H]3CCC4=CC(=O)CC[C@]4(C)[C@H]3CC[C@]12C ?
0.71

So what does the record say about CRP (Rf, control RP plate) for CCOCCn1c(C2CCN(CCc3ccc(C(C)(C)C(=O)O)cc3)CC2)nc2ccccc21 ?
0.76

So what does the record say about CRP (Rf, control RP plate) for CCCc1nc2c(C)cc(-c3nc4ccccc4n3C)cc2n1Cc1ccc(-c2ccccc2C(=O)O)cc1 ?
0.87

So what does the record say about CRP (Rf, control RP plate) for Cc1cncc(CN2CCC(=C3c4ccc(Cl)cc4CCc4cccnc43)CC2)c1 ?
0.55

So what does the record say about CRP (Rf, control RP plate) for OC(CNCC(O)C1CCc2cc(F)ccc2O1)C1CCc2cc(F)ccc2O1 (stereo not shown) ?
0.40

So what does the record say about CRP (Rf, control RP plate) for Cc1ccc(S(=O)(=O)NC(=O)NN2CC3CCCC3C2)cc1 (stereo not shown) [gliclazide] ?
0.83

So what does the record say about CRP (Rf, control RP plate) for O=c1n(CCCN2CCN(c3cccc(Cl)c3)CC2)nc2ccccn12 ?
0.76

So what does the record say about CRP (Rf, control RP plate) for CSc1ccc2c(c1)N(CCC1CCCCN1C)c1ccccc1S2 (stereo not shown) ?
0.40

So what does the record say about CRP (Rf, control RP plate) for CN(C)CCC[C@@]1(c2ccc(F)cc2)OCc2cc(C#N)ccc21 ?
0.55

So what does the record say about CRP (Rf, control RP plate) for Fc1ccc([C@@H]2CCNC[C@H]2COc2ccc3c(c2)OCO3)cc1 ?
0.60

So what does the record say about CRP (Rf, control RP plate) for C[C@H]1c2cccc(O)c2C(=O)C2=C(O)[C@]3(O)C(=O)C(C(N)=O)=C(O)[C@@H](N(C)C)[C@@H]3[C@@H](O)[C@@H]21 ?
0.08

So what does the record say about CRP (Rf, control RP plate) for NC(=O)N1c2ccccc2C=Cc2ccccc21 [carbamazepine] ?
0.83

So what does the record say about CRP (Rf, control RP plate) for CC(C)(C(=O)O)c1ccc(C(O)CCCN2CCC(C(O)(c3ccccc3)c3ccccc3)CC2)cc1 (stereo not shown) [fexofenadine] ?
0.85

So what does the record say about CRP (Rf, control RP plate) for CC(=O)Nc1ccc(O)cc1 ?
0.92

So what does the record say about CRP (Rf, control RP plate) for CN(C)CCc1c[nH]c2ccc(C[C@H]3COC(=O)N3)cc12 ?
0.86

So what does the record say about CRP (Rf, control RP plate) for CN1C(C(=O)Nc2ccccn2)=C(O)c2ccccc2S1(=O)=O ?
0.58

So what does the record say about CRP (Rf, control RP plate) for CC(C)NCC(O)COc1ccc(CCOCC2CC2)cc1 (stereo not shown) ?
0.27

So what does the record say about CRP (Rf, control RP plate) for OC(CCN1CCCCC1)(c1ccccc1)C1CC2C=CC1C2 (stereo not shown) ?
0.87

So what does the record say about CRP (Rf, control RP plate) for CCCCC(=O)N(Cc1ccc(-c2ccccc2-c2nnn[nH]2)cc1)[C@H](C(=O)O)C(C)C ?
0.97
